Cited source for all entries: PubChem BioAssay (NCI)

Tested on: SW-620 colon
Assay: NCI-60 one-dose screen, 48 h (100 = growth as untreated, 0 = no growth, -100 = all killed)
Conditions: 10 µM unless noted
Compounds without any hit were thinned out: in the full panel of roughly 83,000, 20% have a hit.
Label NOT MET if growth falls below 80%; label MET in every other case.

See these solved cases before continuing.
{"columns": ["compound", "assay.system", "category.label"],
 "data": [
  ["Cc1c(Cl)cccc1S(=O)(=O)Nc1ccc2c(c1)C(=O)N(C1CCC(=O)NC1=O)C2=O (stereo not drawn)", "SW-620 colon", "NOT MET"],
  ["O=C(CSc1nc2ccccc2c(=O)n1-c1ccccc1)Nc1cccc(C(=O)/C=C/c2ccccc2Cl)c1", "SW-620 colon", "MET"]
]}

QUERY: Determine whether this compound has growth no lower than 80%: `COc1cccc2c1CN(C(=O)c1ccc(O)c(C(=O)N3Cc4ccc(OCCC[P+](c5ccccc5)(c5ccccc5)c5ccccc5)cc4C3)c1)C2`
RESULT: NOT MET

QUERY: Quick check, growth >= 80%? COc1ccc(C2CC(c3cccc(Nc4nc(Cl)nc5cc(OC)c(OC)cc45)c3)=Nc3c(N)nc(N)nc3N2)cc1 (stereo not drawn)
RESULT: NOT MET

QUERY: Decide: growth of `Cn1ccnc1C(=O)/C=C/c1ccc(NC(=O)c2ccc(F)cc2)cc1` >= 80%?
RESULT: NOT MET

QUERY: Does growth meet or surpass 80% for `N=c1c2cc(-c3ccccc3)oc2ncn1/N=C/c1ccc(Cl)cc1` ?
RESULT: NOT MET

QUERY: Is growth at least 80%? Consider `C=CCn1c(SCC(=O)Nc2ccc(C(=O)/C=C/c3ccc(Br)cc3)cc2)nnc1-c1c[nH]c2ccccc12`
RESULT: MET
